Biological target: progesterone receptor (Homo sapiens, UniProt P06401)
Construct: made in house; host or cells: Hi5 insect cells (cytosol)
Sequence (P06401 whole entry, species assumed): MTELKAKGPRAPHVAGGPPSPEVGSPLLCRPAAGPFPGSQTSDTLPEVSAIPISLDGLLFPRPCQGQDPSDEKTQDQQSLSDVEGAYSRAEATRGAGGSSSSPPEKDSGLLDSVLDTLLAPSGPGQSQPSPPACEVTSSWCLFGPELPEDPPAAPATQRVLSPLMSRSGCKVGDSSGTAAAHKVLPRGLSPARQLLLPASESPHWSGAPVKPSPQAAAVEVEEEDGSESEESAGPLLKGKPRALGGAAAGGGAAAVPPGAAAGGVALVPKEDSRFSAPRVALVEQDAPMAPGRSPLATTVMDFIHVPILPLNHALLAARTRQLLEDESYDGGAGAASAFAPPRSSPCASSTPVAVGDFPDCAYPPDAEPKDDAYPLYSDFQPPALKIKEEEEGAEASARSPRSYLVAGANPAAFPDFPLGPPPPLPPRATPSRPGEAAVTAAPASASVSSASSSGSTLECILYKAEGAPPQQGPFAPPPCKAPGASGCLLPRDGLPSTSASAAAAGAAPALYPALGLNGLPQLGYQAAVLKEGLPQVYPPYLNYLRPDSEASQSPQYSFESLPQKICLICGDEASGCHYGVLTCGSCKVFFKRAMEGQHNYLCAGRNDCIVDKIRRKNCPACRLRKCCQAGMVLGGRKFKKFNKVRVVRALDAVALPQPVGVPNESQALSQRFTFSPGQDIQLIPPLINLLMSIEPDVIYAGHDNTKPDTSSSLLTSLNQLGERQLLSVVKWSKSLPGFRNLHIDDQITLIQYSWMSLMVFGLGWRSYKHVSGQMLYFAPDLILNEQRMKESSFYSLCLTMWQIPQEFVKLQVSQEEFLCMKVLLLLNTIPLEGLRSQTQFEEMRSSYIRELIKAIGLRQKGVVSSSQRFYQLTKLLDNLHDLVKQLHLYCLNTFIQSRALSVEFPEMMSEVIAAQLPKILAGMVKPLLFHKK
Test: Progesterone receptor binding test
PROPERTY LABEL: IC50 (nM)
# value in nM; strip the unit string

Worked examples, 3 compounds total:
> print(dat)
                                   compound                               measured.on  units.label  recorded.value
1  C[C@]12CC[C@H]3[C@@H](CCC4=C(Cl)C(=O)CC[C@@H]43)[C@@H]1[C@@H]1C[C@@H]1[C@@]21C=CC(=O)O1  progesterone receptor (Homo sapiens, UniProt P06401)           nM            2900
2  C=C[C@@H]1CC2=CC(=O)CC[C@@H]2[C@H]2CC[C@@]3(C)[C@@H]([C@@H]4C[C@@H]4[C@@]34C=CC(=O)O4)[C@@H]21 [Example 25A]  progesterone receptor (Homo sapiens, UniProt P06401)           nM             150
3  C[C@@H]1CC2=CC(=O)CC[C@@H]2[C@H]2CC[C@@]3(C)[C@@H]([C@@H]4C[C@@H]4[C@@]34C=CC(=O)O4)[C@@H]21 [Example 23A]  progesterone receptor (Homo sapiens, UniProt P06401)           nM             120

Looking up CC[C@@H]1CC2=CC(=O)CC[C@@H]2[C@H]2CC[C@@]3(CC)[C@@H]([C@@H]4C[C@@H]4[C@@]34C=CC(=O)O4)[C@H]12 , I see its IC50 listed as 300

All values here come from patent US20110015162A1.
